Origin of values: patent US20220411498A1

Biological target: T1, huCD39 on the cell surface (293T/17-huCD39 cells) (human, UniProt P49961 1-510)
T1 sequence (looked up): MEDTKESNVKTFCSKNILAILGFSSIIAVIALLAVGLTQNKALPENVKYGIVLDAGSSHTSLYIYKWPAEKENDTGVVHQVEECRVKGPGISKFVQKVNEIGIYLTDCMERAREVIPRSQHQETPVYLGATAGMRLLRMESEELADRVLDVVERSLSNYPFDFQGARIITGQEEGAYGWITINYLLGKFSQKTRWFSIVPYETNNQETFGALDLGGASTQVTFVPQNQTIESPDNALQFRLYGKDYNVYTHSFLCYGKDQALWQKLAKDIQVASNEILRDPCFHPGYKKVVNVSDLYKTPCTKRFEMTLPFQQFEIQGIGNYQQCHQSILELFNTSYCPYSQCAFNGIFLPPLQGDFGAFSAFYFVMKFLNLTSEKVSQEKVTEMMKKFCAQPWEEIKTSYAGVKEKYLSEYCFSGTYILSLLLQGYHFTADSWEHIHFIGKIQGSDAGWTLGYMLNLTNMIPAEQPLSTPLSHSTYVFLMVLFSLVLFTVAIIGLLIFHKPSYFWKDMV
Assay: cell-based or functional assay
Measure name: Blocking of ATPase activity on cell surface (293T/17-huCD39, CellTiter Glo): EC50 (pM)
Please reply with the bare figure in pM and do not write the unit itself.

The following binders have reported results that may help.
216 hIgG2 (antibody, V domains shown, Chimeric antibody: mouse Fv fused to the human IgG2 constant region; also called chimeric antibody 216) VH: EVQLVESGGGLVKPGGSLKLPCAASGFTFSDYGMHWVRQAPEKGLEWVAYISSGSSIIYYADTVKGRFTISRDNAKNTLFLQMTSLRSEDTAMYYCARDLYYDHVLDYWGQGTTLTVAS VL: DIQMTQSPSSLSASLGERVSLTCRASQEISGYLIWLQQKPDGTIKRLIYAASTLDSGVPKRFSGNRSGSDYSLTISSLESEDFADYYCLQYASYPRTFGGGTKLEIKR = 11
219 hIgG2 (antibody, V domains shown, Chimeric antibody: mouse Fv fused to the human IgG2 constant region; also called chimeric antibody 219) VH: EVQLVESGGGLVKPGGSLKLSCAASGFTFSDYGMHWVRQAPEKGLEWVAYISSGSSIRYYADTVKGRFTISRDNAKNTLFLQMTSLRSEDTAIYYCARDLYYDHVLDYWGQGTTLTVSS VL: DIQMTQSPSSLSASLGERVSLTCRASQEVSGYLNWLQQKPDGTIKRLIYAASTLDSGVPKRFSGSRSGSDYSLTISSLESEDFADYYCLQYASYPRTFGGGTKVEIKR = 10

Looking for the measured Blocking of ATPase activity on cell surface (293T/17-huCD39, CellTiter Glo): EC50 of 201 hIgG2 (antibody, V domains shown, Chimeric antibody: mouse Fv fused to the human IgG2 constant region, expressed in 293F cells; also called chimeric antibody 201) VH: EVQLVESGGGLVKPGGSLKLSCAASGFTFSDYGMHWVRQAPEKGLEWVAYISSGSSIMYYADTVKGRFTISRDNAKNTLFLQMASLRSEDTAMYYCARDLYYDHVLDYWGQGTTLTVSS VL: DIQMTQSPSSLSASLGERVSLTCRASQEIRGYLIWLQQKPGGTIKRLIYAASTLDSGVPKRFSGSRSGSDYSLTISSLESEDFADYYCLQYTSYPRTFGGGTKLEIKR , can you help?
4

Query: Blocking of ATPase activity on cell surface (293T/17-huCD39, CellTiter Glo): EC50; subject: 217 hIgG2 (antibody, V domains shown, Chimeric antibody: mouse Fv fused to the human IgG2 constant region) VH: EVQLVESGGGLVKPGGSLKLSCAASGFTFSDYGMHWVRQAPEKGLEWVAYISSGSSVIYYVDTVKGRFTISRDNAKNTLFLQMTSLRSEDTAMYYCARDLYYDHVLDSWGQGTTLTVSS VL: DIQMTQSPSSLSASLGERVSLTCRASQEIGGYLSWLQQKPDGTIKRLIYAASTLDSGVPKRFSGSRSGSDYSLTISSLESEDFADYYCLQYASYPRTFGGGTKLEIKR
8
